Test system: Sixty human tumor cell lines
Assay: cells
Settings: 48 h, read-out: Median Growth Inhibitory Concentration (GI50), Mean
Recorded GI50 by entry
All answers are understood in µM, so give the number only.

Example results:
COc1cc(/C=C/C(=O)CC(=O)/C=C/c2ccc(O)c(OC)c2)ccc1O [Curcumin] = 6.7
CC1(/C=C/c2ccccc2O)C=Cc2ccccc2O1 (stereo not drawn) [EF7] = 15.8
O=C1C(=Cc2ccccc2O)CCCC1=Cc1ccccc1O [EF4] = 2.4
CC(=O)O.O=C1C(=Cc2ccccc2F)CNCC1=Cc1ccccc1F [EF24] = 0.7
OC(CCc1ccc(F)cc1F)CCc1ccc(F)cc1F [EF19, 1,5-Bis(2,4-difluorophenyl)-pentan-3-ol] = 17.8

I am curious: what GI50 value has been reported for O=C(C=Cc1ccc(F)cc1F)C=Cc1ccc(F)cc1F [EF9] ?
7.2
